Quick reference: RP-LC retention time of the listed items.
assay: gradient 5% acetonitrile 3 min, to 50% in 2 min, to 85% in 15 min, held 3 min, 100 µL/min; settings: column: Zorbax Extend-C18 2.1 x 50 mm; eluents: water / acetonitrile, 0.1% formic acid
measurement-name: RP-LC retention time (s)

>>> print(df.to_string())
                                    compound      measurement_name  value_unit  result_value
 0  CC(C)NC(=O)c1ccccc1OCC1CCCNC1 (stereo not given)  RP-LC retention time           s           583
 1   O=C(NCC1CCN(S(=O)(=O)C2CC2)CC1)c1ccccn1  RP-LC retention time           s           652
 2  COc1cccc(S(=O)(=O)N2CCC3(CC2)CC(OCC2CC2)CCO3)c1 (stereo not given)  RP-LC retention time           s          1010
 3  COCCn1c(C)cc(O)c(C(c2ccc(SC)cc2)N2CCC(C)CC2)c1=O (stereo not given)  RP-LC retention time           s          1050
 4  COc1ccc(CCS(=O)(=O)NCC2(c3ccc(F)cc3)CC2)cc1  RP-LC retention time           s           950
 5  Cc1ccc2c(Nc3ccc(F)c(C#N)c3)c(C(=O)N3CCOCC3)cnc2n1  RP-LC retention time           s           598
 6  Cc1nn(-c2ccccc2)c2c1C(c1ccc([N+](=O)[O-])cc1)C(C#N)=C(N)O2 (stereo not given)  RP-LC retention time           s           760
 7  Cn1c(=O)c(SCC(=O)NCc2ccccc2Cl)nc2cccnc21  RP-LC retention time           s           786
 8  CSc1cccc(NC(=O)N2CCCC2c2nc(-c3cccc(C)c3)no2)c1 (stereo not given)  RP-LC retention time           s          1080
 9  COc1ccccc1N(Cc1nc2nc(C)cc(C)n2n1)C(=O)c1ccco1  RP-LC retention time           s           709
10  CC(C)(C)C1CCc2[nH]nc(C(=O)NC3CC3)c2C1 (stereo not given)  RP-LC retention time           s           843
11     CCN1CCN(c2nc(-c3cccnc3)nc3ccccc23)CC1  RP-LC retention time           s           524
12  O=C(NCCc1ccccc1)Nc1nccn(-c2ccc3c(c2)CCC3)c1=O  RP-LC retention time           s          1060
13  COc1cccc(CNC(=O)C2CCCN(c3nn4c(=O)c5c(nc4s3)CCCC5)C2)c1 (stereo not given)  RP-LC retention time           s           737
14  CCn1c(CC2CCN(C(=O)NCCc3ccccc3)C2)nc2cccnc21 (stereo not given)  RP-LC retention time           s           588
15  Cc1ccc(C2NC(=O)N(CC(=O)Nc3ccc4c(c3)CCC4)C3=C2C(=O)OC3)cc1 (stereo not given)  RP-LC retention time           s           856
16  CCCS(=O)(=O)N1CC(=O)N(c2ccc(F)cc2C)C(C)(C(=O)NC2CCCCCC2)C1 (stereo not given)  RP-LC retention time           s           988
17  Cc1ccc(S(=O)(=O)c2cnc3ccc(F)cc3c2N2CCOCC2)cc1C  RP-LC retention time           s           892
18       Clc1cc(Br)ccc1-c1ccc(CNCC2CCNCC2)o1  RP-LC retention time           s           605
19  CCCCC(=O)N1CCCN(C2=NS(=O)(=O)C(c3ccc(C)c(C)c3)=C2C)CC1  RP-LC retention time           s           886

----------
assay: gradient 5% acetonitrile 3 min, to 50% in 2 min, to 85% in 15 min, held 3 min, 100 µL/min; conditions: column: Zorbax Extend-C18 2.1 x 50 mm; eluents: water / acetonitrile, 0.1% formic acid
Quick reference: RP-LC retention time of the listed items.
measurement-name: RP-LC retention time (s)

>>> df
                                   molecule  value_unit  result_value
0  CN(C1CCc2nn(CC3CC3)c(=O)n2CC1)S(=O)(=O)c1cccc(F)c1 (stereo not given)           s           777
1  Cc1ccc(NC(=O)CSc2nc(=O)n(CCN(C)C)c3c2CCC3)cc1F           s           646
2  CC1C(=O)NCCN1C(=O)CCSc1ccc(Cl)cc1 (stereo not given)           s           674
3  COc1ccc(C2(CNC(=O)C(=O)Nc3ccccc3Cl)CCCC2)cc1           s          1300
4  O=C(NCc1cc(F)cc(F)c1)C1CCCN(c2cnc3nccnc3c2)C1 (stereo not given)           s           707
5  CCc1ccccc1NC(=O)Cn1cnc2nc(N3CCCC(C(=O)NC)C3)sc2c1=O (stereo not given)           s           646
6     COc1cccc(-c2nc(N3CCSCC3)ncc2C(=O)O)c1           s           857
7  CCN(CC)c1ccc(NC(=O)C2CCCN(S(=O)(=O)c3cn(CC)cn3)C2)c(C)c1 (stereo not given)           s           578
8  COc1cccc(NC(=O)c2c(O)c3cccnc3n(-c3ccccc3)c2=O)c1           s          1220
9  COCCNC(=O)C1CCN(S(C)(=O)=O)c2cc(Cl)ccc2O1 (stereo not given)           s           710

----------
assay: gradient 5% acetonitrile 3 min, to 50% in 2 min, to 85% in 15 min, held 3 min, 100 µL/min; details: column: Zorbax Extend-C18 2.1 x 50 mm; eluents: water / acetonitrile, 0.1% formic acid
measurement-name: RP-LC retention time (s)

>>> df
                                   compound  value_unit  result_value
0  CCN1C(=O)C(C)(C(=O)Nc2ccccc2C)Oc2cccnc21 (centres undefined)           s           876
1  Cc1noc(C)c1S(=O)(=O)N1CCC(Cc2nc(-c3cccnc3)n[nH]2)C1 (centres undefined)           s           624
2  CC(NC(=O)c1c(O)c2sccc2n(Cc2ccccc2)c1=O)c1ccccc1 (centres undefined)           s          1350
3  COc1ccc(NC(=O)C2CCN(S(=O)(=O)c3c(C)nn(-c4ccccc4)c3C)CC2)cc1           s           896
4       CCOc1ccccc1NC(=O)C(=O)NCc1cc(C)oc1C           s           697
5  O=C(C1CC1)N1CCc2sc(S(=O)(=O)NCc3ccccc3Cl)cc2C1           s           855
6  O=C(Nc1ccc2c(c1)OCCO2)C1CCCN(c2ncc(-c3cccc(F)c3)cn2)C1 (centres undefined)           s          1040
7  c1ccc(-n2nnc(-c3noc(-c4ccccn4)n3)c2-c2ccncc2)cc1           s           718
8  COc1cccc(NC(=O)NCCC2CCN(S(=O)(=O)c3ccccc3)CC2)c1           s           870

----------
test: gradient 5% acetonitrile 3 min, to 50% in 2 min, to 85% in 15 min, held 3 min, 100 µL/min; details: column: Zorbax Extend-C18 2.1 x 50 mm; eluents: water / acetonitrile, 0.1% formic acid
Quick reference: RP-LC retention time of the listed items.
measurement-name: RP-LC retention time (s)

>>> df
                                   compound  result_value
0  O=C(CCn1cnc2c(cnn2-c2ccccc2)c1=O)Nc1ccc2c(c1)OCCO2           754
1  C=CCN1C(=O)CC(Nc2ccc(CC)cc2)C1=O (stereo not given)           846
2  COc1cccc(N2CCN(S(=O)(=O)c3cc(-c4cc(C(F)(F)F)on4)cs3)CC2)c1          1200
3  COc1ccc(-c2nc3cc(C)ccn3c2NC(=O)c2ccc(OC)cc2OC)cc1           706
4  O=C(NCc1ccccc1Cl)C1CCN(C(=O)c2ncn3c2COC(c2ccccc2)C3)CC1 (stereo not given)           786

----------
test: gradient 5% acetonitrile 3 min, to 50% in 2 min, to 85% in 15 min, held 3 min, 100 µL/min; conditions: column: Zorbax Extend-C18 2.1 x 50 mm; eluents: water / acetonitrile, 0.1% formic acid
Grouping by measured RP-LC retention time is done with the following cut points: low group: < 700 s; middle group: ≥ 700 s and < 1000 s; high group: ≥ 1000 s

>>> df
                                    compound  assigned_class
 0  Cc1ccc(-c2nc3n(CC(=O)NC4CCCC4)c4c(c(=O)n3n2)CCC4)cc1    middle group
 1     CCc1nc2c(NC(=O)c3cc(F)cc(F)c3)cccn2n1    middle group
 2  Cc1cc(-c2nnc(-c3ccco3)o2)c(C)n1CC(=O)NCc1ccc(F)cc1Cl    middle group
 3                  CNc1nc(N(C)C)nc(N(C)C)n1       low group
 4  O=C(CCn1cnc2cc(-c3noc(COc4ccc(Cl)cc4)n3)ccc21)N1CCCCCC1    middle group
 5  CCc1ccc(-c2noc(CSc3nc4cc5c(cc4c(=O)n3CCOC)OCO5)n2)cc1      high group
 6       CCC(=O)N1CCc2cc(C(=O)NC3CCCC3)ccc21    middle group
 7  COC(=O)c1ccc2nc(NC(=O)c3ccccc3S(C)(=O)=O)sc2c1    middle group
 8  COc1ccc(-c2nnc(SCC(=O)N3CCC(C)CC3)o2)cc1    middle group
 9  CCc1ccc(CNC(=O)C2CCN(c3cnc(N4CCOCC4)nc3)CC2)cc1    middle group
10  Cc1ccc(-c2cc3c(=O)n(Cc4nc(-c5cccc(Br)c5)no4)ncn3n2)c(C)c1      high group
11  O=C(Nc1ccccc1)c1nnc(CCC(=O)N2CCN(c3ccccn3)CC2)s1       low group
12  Cc1ccc(NC(=O)Cn2nc(N3CCCC(C)C3)c3ccccc3c2=O)cc1F (stereo not given)      high group
13  Cc1ccc(NC(=O)CN2CCc3[nH]c4c(C)ccc(F)c4c(=O)c3C2)cc1F       low group
14  Cc1ccc(S(=O)(=O)N2CCCC(CCC(=O)NC3CCCCC3)C2)cc1 (stereo not given)    middle group

The reported numbers originate from the METLIN SMRT retention time set (Domingo-Almenara et al. 2019).
